- Test system: OVCAR-3 ovarian
- Protocol description: NCI tumour cell line growth inhibition, 48 h
Property measured: TGI

Reference set (5 entries):
Compound	Property measured	Recorded value
CC(=O)Nc1ccc(-c2nc3ccccc3s2)cc1Br	TGI	> 100 µM
O=C1CSC(c2ccccc2)N1c1nc2cc3sc(N4C(=O)CSC4c4ccccc4)nc3cc2s1 (stereo unspecified)	TGI	> 100 µM
O=c1cccccc1NCCCNc1cccccc1=O	TGI	> 100 µM
COc1ccc(C(C)c2cc3c(cc2OC)OCO3)cc1 (stereo unspecified)	TGI	0.598 µM
Cc1cc(S(=O)(=O)Nc2nc(N)nc(N3N=CCC3C)n2)c(SCC(=O)O)cc1Cl (stereo unspecified)	TGI	> 10 µM

Below: the item to evaluate.
The compound CCOC(=O)c1c(CN2CCN(c3ccccc3)CC2)n(-c2ccccc2)c2cc(Br)c(O)cc12 on OVCAR-3 ovarian: TGI was 32.1 µM
